molecular target: Sox2 HMG DBD WT (human, UniProt P48431 39-118); test: EMSA
Sequence (P48431 39-118): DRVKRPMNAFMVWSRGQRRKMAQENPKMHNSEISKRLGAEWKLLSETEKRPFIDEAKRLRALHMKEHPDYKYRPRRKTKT
EXPERIMENTAL_ENDPOINT: Kd (nM)
Supply the numeric figure in nM, leaving out any unit text.

Query block: Fill in Kd for record DNA 601* (dsDNA) DNA 1: TGGAGAATCCCGGTGCCGAGGCCGCTCAATTGGTCGTAGACAGCTCTAGCACCGCTTAAACGCACGTACGCGCTGTCCCCCGCGTTTTAACCGCCAAGGGGATTACTCCCTAGTCTCCAGGCACGTGTGGTTACGAGGCTATCGT DNA 2: ACGATAGCCTCGTAACCACACGTGCCTGGAGACTAGGGAGTAATCCCCTTGGCGGTTAAAACGCGGGGGACAGCGCGTACGTGCGTTTAAGCGGTGCTAGAGCTGTCTACGACCAATTGAGCGGCCTCGGCACCGGGATTCTCCA
Result block: 8

// data source = paper doi:10.1101/2022.01.18.476780
